Provenance of the data: the supplement of paper PMC11780869

tested on: Bacillus subtilis; assay: cleaved RNA product abundance (RNA/gDNA barcode ratio) relative to median wild-type variant (ratio to wild type); higher = more accumulation of the downstream cleavage product; settings: experiment (reporter, strain, medium): exp 4a: truncated aprE reporter, strain BJT201 with 2% xylose (RNase J1 expressed); cleavage site: cggR-gapA (positions -7 to +36 mutated)
measured_quantity: cleaved RNA product abundance

INSERT INTO measurements (seq_text, tgt, measured_quantity, measured) VALUES
  ('ACAGACGAAGGAGCCGCAAAGAAGATCTTAAGGGATGAATAATCCCTCAATATAAATATCTCTCACTTATTTAAA', 'Bacillus subtilis', 'cleaved RNA product abundance', 0.166),
  ('ACAGACGAAGGAGCCGCAAAGAAGTTATTAAGGGATGAATAATCCCTCAATATAAATATATCTCACTTATTTAAA', 'Bacillus subtilis', 'cleaved RNA product abundance', 1.02),
  ('ACAGACGAAGGAGCCGCAAAGACGTTATTAAGGGATGAATCATCCCTCAATATAAATATCTCTCACTTATTTAAA', 'Bacillus subtilis', 'cleaved RNA product abundance', 0.771),
  ('ACAGACGAAGGAGCCGCAAAGAAGTTATTAAGGGATGAATAAACCCTCAATGTAAATATCTCTCACTTATTTAAA', 'Bacillus subtilis', 'cleaved RNA product abundance', 0.19);

====

test system: Bacillus subtilis; assay: cleaved RNA product abundance (RNA/gDNA barcode ratio) relative to median wild-type variant (ratio to wild type); higher = more accumulation of the downstream cleavage product; settings: experiment (reporter, strain, medium): exp 4a: truncated aprE reporter, strain BJT201 with 2% xylose (RNase J1 expressed); cleavage site: cggR-gapA (positions -7 to +36 mutated)
measured_quantity: cleaved RNA product abundance

INSERT INTO results (seq_text, tgt, measured) VALUES
  ('ACAGACGAAGGAGCCGCAAAGAAGTTATTAAGGGATGAATATTCCCTAAATATAAATATCTCTCACTTATTTAAA', 'Bacillus subtilis', 0.462),
  ('ACAGACGAAGGAGCCGCAAAGATGTTATTAAGGGATGAATAATCTCTCAATATAAATATCTCTCACTTATTTAAA', 'Bacillus subtilis', 0.874),
  ('ACAGACGAAGGAGCCGCAAGGTAGTTATTAAGGGATGAATAATCCCTCAATATAAATATCTCTCACTTATTTAAA', 'Bacillus subtilis', 1),
  ('ACAGACGAAGGAGCCGCAAAGAAGTTATTAAGGGATGAATAATCCCTCAATATAAATATCTCTCACTATTTAAAG', 'Bacillus subtilis', 1.23),
  ('ACAGACGAAGGAGCCGCAAAGCATTTATTAAGGGATGAATAATCCCTCAATATAAATATCTCTCACTTATTTAAA', 'Bacillus subtilis', 0.256),
  ('ACAGACGAAGGAGCCGCAAAGAAGTTATTAAGGGATGAATAATCCCTCAAAATAAATATCTCTCACTTATTTAAA', 'Bacillus subtilis', 0.393),
  ('ACAGACGAAGGAGCCGCAAATAAGTTCTTAAGGGATGAATAATCCCTCAATATAAATATCTCTCACTTATTTAAA', 'Bacillus subtilis', 0.258),
  ('ACAGACGAAGGAGCCGCAAAGAAGTTATTAAGGGATAAATAATCCCTCTATATAAATATCTCTCACTTATTTAAA', 'Bacillus subtilis', 0.326),
  ('ACAGACGAAGGAGCCGCAAAGAAGTTATTAAGGGATGAATAAGCCCTCAAAATAAATATCTCTCACTTATTTAAA', 'Bacillus subtilis', 0.261),
  ('ACAGACGAAGGAGCCGCAAAGAAGTTATTAACGGATGTATAATCCCTCAATATAAATATCTCTCACTTATTTAAA', 'Bacillus subtilis', 0.147),
  ('ACAGACGAAGGAGCCGCAAAGAAGTTATTAAAGGATGAATAATCCCTCAATACAAATATCTCTCACTTATTTAAA', 'Bacillus subtilis', 0.0875),
  ('ACAGACGAAGGAGCCGCAAAGAAGATATTAAGGGATGAATAATCCCTAAATATAAATATCTCTCACTTATTTAAA', 'Bacillus subtilis', 0.665),
  ('ACAGACGAAGGAGCCGCAAAGAAGTTATTACGGGATGAATAATCCCTCGATATAAATATCTCTCACTTATTTAAA', 'Bacillus subtilis', 0.259),
  ('ACAGACGAAGGAGCCGCCAAGAAATTATTAAGGGATGAATAATCCCTCAATATAAATATCTCTCACTTATTTAAA', 'Bacillus subtilis', 0.549),
  ('ACAGACGAAGGAGCCGCAAAGAAGTTATTAAAGGATAAATAAACCCTCAATATAAATATCTCTCACTTATTTAAA', 'Bacillus subtilis', 0.128);

====

tested on: Bacillus subtilis; experiment: cleaved RNA product abundance (RNA/gDNA barcode ratio) relative to median wild-type variant (ratio to wild type); higher = more accumulation of the downstream cleavage product; conditions: experiment (reporter, strain, medium): exp 2b: truncated aprE reporter, strain BJT200; cleavage site: cggR-gapA (positions -7 to +36 mutated)
measured_quantity: cleaved RNA product abundance

INSERT INTO results (seq_text, tgt, measured_quantity, measured) VALUES
  ('ACAGACGAAGGAGCCGCAGAGAAGTTATTAAGGGATGAATAATCCCTCAATATAAATAACTCTCACTTATTTAAA', 'Bacillus subtilis', 'cleaved RNA product abundance', 0.518),
  ('ACAGACGAAGGAGCCGCAAAGAAGTTATTAAGGTATGAATAATCCCTTAATATAAATATCTCTCACTTATTTAAA', 'Bacillus subtilis', 'cleaved RNA product abundance', 0.709),
  ('ACAGACGAAGGAGCCGCAAAGAAGTTATTAAGTCATGAATAATCCCTCAATATAAATATCTCTCACTTATTTAAA', 'Bacillus subtilis', 'cleaved RNA product abundance', 0.0957),
  ('ACAGACGAAGGAGCCGCAAAGACGTTATTAAGGGATGAATAATCACTCAATATAAATATCTCTCACTTATTTAAA', 'Bacillus subtilis', 'cleaved RNA product abundance', 0.101),
  ('ACAGACGAAGGAGCCGCAAAGATGTTATTAAGGGATGAATAATACCTCAATATAAATATCTCTCACTTATTTAAA', 'Bacillus subtilis', 'cleaved RNA product abundance', 0.128),
  ('ACAGACGAAGGAGCCGCAAAGAAGTTATTAAGGGATGAATAATCCCTAAATATTAATATCTCTCACTTATTTAAA', 'Bacillus subtilis', 'cleaved RNA product abundance', 0.189),
  ('ACAGACGAAGGAGCCGCAAAGAAGTTAATAAGGGATGAATAATCCATCAATATAAATATCTCTCACTTATTTAAA', 'Bacillus subtilis', 'cleaved RNA product abundance', 0.166);

====

tested on: Bacillus subtilis; assay: cleaved RNA product abundance (RNA/gDNA barcode ratio) relative to median wild-type variant (ratio to wild type); higher = more accumulation of the downstream cleavage product; details: experiment (reporter, strain, medium): exp 2b: truncated aprE reporter, strain BJT200; cleavage site: cggR-gapA (positions -7 to +36 mutated)
measured_quantity: cleaved RNA product abundance

INSERT INTO results (seq_text, measured_quantity, measured) VALUES
  ('ACAGACGAAGGAGCCGCAAAGAAGTTATTAAGGGATGAATAATCCCTCAATATAAACATCTCTCACTTATTTAAA', 'cleaved RNA product abundance', 0.652),
  ('ACAGACGAAGGAGCCGCTAAGAAATTATTAAGGGATGAATAATCCCTCAATATAAATATCTCTCACTTATTTAAA', 'cleaved RNA product abundance', 0.556),
  ('ACAGACGAAGGAGCCGCAAAGAAGTTATTAAACGATGAATAATCCCTCAATATAAATATCTCTCACTTATTTAAA', 'cleaved RNA product abundance', 0.0904),
  ('ACAGACGAAGGAGCCGCAAAGAACTTATTAAGGGATGAATAATCCCTCAATATAAATAACTCTCACTTATTTAAA', 'cleaved RNA product abundance', 0.444);

====

Recorded measurements of cleaved RNA product abundance, one per entry
tested on: Bacillus subtilis; assay: cleaved RNA product abundance (RNA/gDNA barcode ratio) relative to median wild-type variant (ratio to wild type); higher = more accumulation of the downstream cleavage product; conditions: experiment (reporter, strain, medium): exp 8a: truncated aprE reporter, strain BJT201 with 2% xylose (RNase J1 expressed); cleavage site: glnRA (positions -5 to +31 mutated)
measured_quantity: cleaved RNA product abundance

INSERT INTO results (seq_text, measured) VALUES
  ('CGACATGTCCCGCTTCTTTCATTAATCCGTTAGCAACTGATTTGCTATATAGATTTACCTTTTAAGAGGAGGAAT', 0.979),
  ('CGACATGTCCCGCTTCTTTCATTAATCCGTTAGCAACTGTTTTACTAAATACATTTACCTTTTAAGAGGAGGAAT', 0.499),
  ('CGACATGTCCCGCTTCTTTCATTAATCCGTTAGCAACTGTATTGCTATATACATTTAACTTTTAAGAGGAGGAAT', 1.13),
  ('CGACATGTCCCGCTTCTTTCATTAATCCGTTAACAACTTTTTTGCTATATACATTTACCTTTTAAGAGGAGGAAT', 0.193);
